meta.source: ChEMBL document CHEMBL1138889

SUBJECT_OF_TEST: Mitogen-activated protein kinase 14 (Homo sapiens, UniProt Q16539)
Sequence (Q16539 whole entry): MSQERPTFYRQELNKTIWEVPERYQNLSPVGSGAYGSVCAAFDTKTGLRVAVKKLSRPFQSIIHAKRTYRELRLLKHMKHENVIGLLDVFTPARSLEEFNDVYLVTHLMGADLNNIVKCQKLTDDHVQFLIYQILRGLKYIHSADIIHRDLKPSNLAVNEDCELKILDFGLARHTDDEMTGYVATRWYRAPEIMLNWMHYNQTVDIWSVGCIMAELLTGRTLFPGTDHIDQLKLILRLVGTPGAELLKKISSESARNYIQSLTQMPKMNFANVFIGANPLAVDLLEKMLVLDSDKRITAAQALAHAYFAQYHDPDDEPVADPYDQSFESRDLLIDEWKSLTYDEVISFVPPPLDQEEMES
EXPERIMENTAL_PROTOCOL: Inhibition of LPS-stimulated TNFalpha production in human THP1 cells
pIC50: −log10 of the molar value.
MEASURE: pIC50

# COMPOUND_SMILES, pIC50
data = [
    ("C[C@H](Nc1nccc(N(C(=O)Nc2ccccc2Cl)c2cccc(F)c2)n1)c1ccccc1", 5.21),
]

P = O=C(Nc1ccccc1Cl)N(c1ccc(F)cc1)c1ccnc(NC2CCOCC2)n1
Q = COC[C@H](C)Nc1nccc(N(C(=O)Nc2ccccc2F)c2ccc(F)cc2)n1
Hi team, can someone confirm which has the larger pIC50: P or Q ? Thanks. State the label of the item chosen.
P
(P: 6.27, Q: 5.54)

----------
SUBJECT_OF_TEST: Mitogen-activated protein kinase 14 (Homo sapiens, UniProt Q16539)
EXPERIMENTAL_PROTOCOL: Inhibition of LPS-stimulated TNFalpha production in human THP1 cells
pIC50: −log10 of the molar value.
MEASURE: pIC50

# COMPOUND_SMILES, MEASURE, MEASURED_RESULT
measured = [
    ("COc1ccc(N(C(=O)Nc2ccccc2C)c2ccnc(N[C@@H](C)C(C)(C)O)n2)cc1", "pIC50", 6.87),
    ("COc1ccc(N(C(=O)Nc2ccccc2Cl)c2ccnc(N[C@@H](C)C(C)(C)O)n2)cc1", "pIC50", 7.04),
    ("Cc1ccccc1NC(=O)N(c1ccc(F)cc1)c1ccnc(N[C@@H](C)C(C)(C)O)n1", "pIC50", 6.75),
    ("C[C@H](Nc1nccc(N(C(=O)Nc2ccccc2Cl)c2ccc(F)cc2)n1)C(C)(C)O", "pIC50", 6.91),
]
